Task for the reader: assign each of the following compounds its reported activity at 1 µM.
test system: primary cortical neurons; assay: Neurite outgrowth assay of primary cortical neurons (image-based HCS) against paclitaxel-induced neurotoxicity; type: cell-based, mouse; conditions: Mus musculus, Primary cortical neuron; test compound 1000 nM + paclitaxel 1 μM; mean ± SE; read-out: D: Neurite outgrowth (% of control) of test compound (1000 nM) + paclitaxel (1 μM)
Numbers only, in %.

Example entries and their recorded answers appear below.
CCN(CC)c1cc(NNC(=O)c2ccccc2OC)nc(N(CC)CC)n1
50
O=[N+]([O-])c1ccc(/C=N/Nc2cc(N3CCCC3)nc(N3CCCC3)n2)cc1
60
Oc1ccccc1/C=N/Nc1cc(N2CCCCC2)nc(N2CCCCC2)n1
57
Oc1cccc(/C=N/Nc2cc(N3CCCC3)nc(N3CCCC3)n2)c1
75
CCN(CC)c1ccc(/C=N/Nc2cc(N3CCOCC3)nc(N3CCOCC3)n2)cc1
66
Clc1ccc(/C=N/Nc2cc(N3CCCCCC3)nc(N3CCCCCC3)n2)cc1
51

Each of the following entries comes with a recorded value; kindly state activity at 1 µM for each.
1. CN(C)c1cc(NNC(=O)c2ccc(C(C)(C)C)cc2)nc(N(C)C)n1
2. Cc1ccc(S)c(Nc2cc(N)nc(N)n2)n1
3. Cc1ccccc1C(=O)NNc1cc(N2CCOCC2)nc(N2CCOCC2)n1
4. C(=N\Nc1cc(N2CCCCCC2)nc(N2CCCCCC2)n1)/c1ccncc1

44
57
63
82

Each of the following entries comes with a recorded value; kindly state activity at 1 µM for each.
1. Oc1ccc(/C=N/Nc2cc(N3CCOCC3)nc(N3CCOCC3)n2)cc1
2. COc1cc(/C=N/Nc2cc(N3CCCC3)nc(N3CCCC3)n2)ccc1O
3. CCCN(CCC)c1cc(N/N=C/c2ccc(Cl)cc2)nc(N(CCC)CCC)n1
4. COc1ccc(/C=N/Nc2cc(N(C)C)nc(N(C)C)n2)cc1
5. CN(C)c1cc(N/N=C/c2cccc(O)c2)nc(N(C)C)n1
6. CN(C)c1ccc(/C=N/Nc2cc(N3CCCC3)nc(N3CCCC3)n2)cc1
7. CN(C)c1cc(N/N=C/c2cccc([N+](=O)[O-])c2)nc(N(C)C)n1
8. CCN(CC)c1cc(NNC(=O)CCc2ccccc2)nc(N(CC)CC)n1

[54, 76, 27, 55, 50, 63, 65, 44]
